These entries and their values trace back to patent US4482554A.

assayExplanation: solubility in water of stoichiometric oxicam salts
Assay type: physicochemical
recordedConditions: stoichiometric salt with methylglucamine, per milliliter of solution, read-out: active material per milliliter of solution
valueType: solubility (mg/mL)

1) Cc1cc(NC(=O)C2=C(O)c3ccccc3S(=O)(=O)N2C)no1 49

---

assayExplanation: solubility in water of stoichiometric oxicam salts
Assay type: physicochemical
recordedConditions: shortly after preparation, read-out: solubility in water, initial
Counter-ions that a name gives are not always drawn.
valueType: solubility

compound	dataValue
Cc1cc(NC(=O)C2=C(O)c3ccccc3S(=O)(=O)N2C)no1 [sodium salts of isoxicam]	~24 mg/mL
